Data provenance: patent US20220112288A1

# assay_target: T1, Recombinant human CD4 (R&D Systems, Cat. 10327-CD) (human, UniProt P01730 26-390, limits assumed)
# T1 construct: Bought protein; also called huCD4
# assay_notes: BLI (Octet Red384), purified antibody on anti-mouse Fc sensors, human CD4 100/50/25 nM, global 1:1 fit;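 note: antibodies loaded at 10 µg/mL, curves fitted across association and dissociation phases, with an unrelated mouse-derived antibody serving as internal reference control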
recorded_metric: Kd

See these solved cases before continuing.
binder="75110_12C19A (antibody, V domains shown, Tested as antibody purified from AlivaMab Mouse Kappa hybridoma (human V regions, kappa light chain, mouse Fc captured by anti-mouse Fc sensors)) VH: EVQLVESGGGLVQPGGSLRLSCAASGFTFSSYWMSWVRQAPGKGLEWVANIKEDGSDKYYVDSVKGRFTISRDNAKNSLYLQMNSLRAEDTAVHYCVREGGQWLALDYWGQGTLVTVSS VL: DIQMTQSPSSVSGSVGDRVTITCRASQGISSWLAWYQQKPGKAPKLLIYGASSLQSGVPSRFSGSGSGTDFTLTISSLQPEDFVTYYCQQANSFPWTFGQGTKVEIK" result="5 nM"
binder="75110_08H11A (antibody, V domains shown, Tested as antibody purified from AlivaMab Mouse Kappa hybridoma (human V regions, kappa light chain, mouse Fc captured by anti-mouse Fc sensors); also called 75110_08H1lA) VH: EVQLVESGGGLVQPGGSLRLSCAASGFTFSSYDMHWVRQATGKGLEWVSTIGTAGDTYYPGSVKGRFTISRENAKNSLYLQMNSLRAGDTAVYYCARGGYSYYGMDVWGQGTTVTVSS VL: EIVLTQSPGTLSLSPGERATLSCGASQSVSSTYLAWYQQKPGQAPRLLIYGASSRATGIPDRFSGSGSGTDFTLTISRLEPEDFAVYYCQQFGSSPFTFGPGTKVDIK" result="26 nM"
binder="75110_05K11A (antibody, V domains shown, Tested as antibody purified from AlivaMab Mouse Kappa hybridoma (human V regions, kappa light chain, mouse Fc captured by anti-mouse Fc sensors)) VH: EVQLVESGGGLVQPGGSLRLSCAASGFTFSSYDMHWVRQPTGKGLEWVSTIGTAGDTYYPASVKGRFTISRENAKNSLYLQMNSLRAGDTAVYYCARGGFYYYGMDVWGQGTTVTVSS VL: EIVLTQSPGTLSLSPGERVTLSCRASQSVSNTYLAWYQQKPGQAPRLLIYGASSRATGIPDRFSGSGSGTDFTLTISRLEPEDFVVYYCQQHGSSPFTFGPGTKVDIK" result="< 0.001 nM"
binder="75110_08K12A (antibody, V domains shown, Tested as antibody purified from AlivaMab Mouse Kappa hybridoma (human V regions, kappa light chain, mouse Fc captured by anti-mouse Fc sensors)) VH: EVQLVESGGGLVQPGGSLRLSCAASGFTFSSYDMHWVRQATGKGLEWVSTIGTAGDTYYPGSVKGRFTISRENAENSLYLQMNSLRAGDTALYYCARGDYYYYGMDVWGQGTTVTVSS VL: EIVLTQSPGTLSLSPGERATLSCRASQSVSSTYLAWYQQKPGQAPRLLIYGASNRATGIPDRFSGSGSGTDFTLTISRLEPEDFAVYYCQQFGTSPFTFGPGTKVDIK" result="220 nM"

API: the following record is the query input.
Returns the measured Kd for the input binder. Input: 75110_09N20A (antibody, V domains shown, Tested as antibody purified from AlivaMab Mouse Kappa hybridoma (human V regions, kappa light chain, mouse Fc captured by anti-mouse Fc sensors)) VH: EVQLVESGGGLVQPGGSLRLSCAASGFTFSSYWMSWVRQAPGKGLEWVANINEDGSEKYYVDSVKGRFTISRDNAKNSLYLQMNSLRAEDTAVYYCVREGGQWLALDYWGQGTLVTVSS VL: DIQMTQSPSSVSASVGDRVTITCRASQGISSWLAWYQQKPGKAPKLLIYAASSLQSGVPSSFSGSGSGTDFTLTINSLQPEDFATYYCQQANSFPWTFGQGTKVAIK
53 nM
